Test system: EVSA-T (Breast Carcinoma)
Test: Bliss excess, mean over the matrix (fraction); higher = more synergy;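 further: after 72 h of two-drug dosing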
Would you mind telling me the reported Bliss excess of each entry?

Take a look at these entries with their results.
CN(CCO)CC[C@H](CSc1ccccc1)Nc1ccc(S(=O)(=O)NC(=O)c2ccc(N3CCC([C@@H](O)c4ccccc4-c4ccc(Cl)cc4)CC3)cc2)cc1S(=O)(=O)C(F)(F)F [AZD4320] + C[C@@H](Nc1cc(F)cc(F)c1)c1cc(C(=O)N(C)C)cc2c(=O)cc(N3CCOCC3)oc12 [AZD8186] (first compound max 1 µM, 7x7, partner max 3 µM) :: 0.0222
COc1cccc(OCCCN)c1-c1cc(Nc2cnc(C#N)cn2)n[nH]1 [Prexasertib] + C[C@@H]1COCCN1C2=NC(=NC(=C2)C3(CC3)[S@](=N)(=O)C)C4=C5C=CNC5=NC=C4 [AZD6738] (first compound max 1 µM, 7x7, partner max 10 µM) :: 0.0094

Quick batch: Bliss excess for everything below.
1. COc1cccc(OCCCN)c1-c1cc(Nc2cnc(C#N)cn2)n[nH]1 [Prexasertib] + Cc1cc2ncnn2cc1Nc1ncc2c(n1)n(C1CCOCC1)c(=O)n2C [AZD7648] (first compound max 1 µM, 7x7, partner max 10 µM)
2. Cc1nc(Nc2ncc(C(=O)Nc3c(C)cccc3Cl)s2)cc(N2CCN(CCO)CC2)n1 [Dasatinib] + CC(=O)Nc1cccc(-n2c(=O)n(C3CC3)c(=O)c3c(Nc4ccc(I)cc4F)n(C)c(=O)c(C)c32)c1 [Trametinib] (first compound max 2 µM, 7x7, partner max 1 µM)

1. 0.017
2. -0.0361

###

System: NCI-H1792 (Lung Adenocarcinoma)
Assay: Bliss excess, mean over the matrix (fraction); higher = more synergy
MEASURE: Bliss excess
Numbers only.

Some entries whose results are on file:
O=C(c1cc(Cc2n[nH]c(=O)c3ccccc23)ccc1F)N1CCN(C(=O)C2CC2)CC1 [Olaparib] + CN(CC[C@H](CSC1=CC=CC=C1)NC2=C(C=C(C=C2)S(=O)(=O)NC(=O)C3=CC=C(C=C3)N4CCC(CC4)[C@H](C5=CC=CC=C5C6=CC=C(C=C6)Cl)O)S(=O)(=O)C(F)(F)F)CCO [AZD4320] (first compound max 10 µM, 7x7, partner max 1 µM) :: -0.0399
COc1nnc2ccc(N3CCC(c4ccc(OCCN5CCN(C)C(=O)[C@H]5C)cc4)CC3)nn12 [AZD5153] + CCN(CCO)CCCOc1ccc2c(Nc3cc(CC(=O)Nc4cccc(F)c4)[nH]n3)ncnc2c1 [AZD2811] (first compound max 1 µM, 7x7, partner max 1 µM) :: -0.083
Cn1cnc2c(F)c(Nc3ccc(Br)cc3Cl)c(C(=O)NOCCO)cc21 [Selumetinib] + C=CCn1c(=O)c2cnc(Nc3ccc(N4CCN(C)CC4)cc3)nc2n1-c1cccc(C(C)(C)O)n1 [AZD1775] (first compound max 10 µM, partner max 1 µM) :: -0.0647

Provide Bliss excess for all items below, preserving their order.
1. Cc1c2c(nn1C)CSCc1cc(n(C)n1)CSc1cc(c3ccccc3c1)OCCCc1c(C(=O)O)n(C)c3c-2c(Cl)ccc13 [AZD5991] + CN(C)CCCOc1ccc(-c2ccc3ncc4c(c3c2)n(C2CCOCC2)c(=O)n4C)cn1 [AZD0156] (first compound max 1 µM, 7x7, partner max 1 µM)
2. CC1(C)CCC(CN2CCN(c3ccc(C(=O)NS(=O)(=O)c4ccc(NCC5CCOCC5)c([N+](=O)[O-])c4)c(Oc4cnc5[nH]ccc5c4)c3)CC2)=C(c2ccc(Cl)cc2)C1 [Venetoclax] + Cn1cnc2c(F)c(Nc3ccc(Br)cc3Cl)c(C(=O)NOCCO)cc21 [Selumetinib] (first compound max 1 µM, 7x7, partner max 3 µM)
3. CN(CCO)CC[C@H](CSc1ccccc1)Nc1ccc(S(=O)(=O)NC(=O)c2ccc(N3CCC([C@@H](O)c4ccccc4-c4ccc(Cl)cc4)CC3)cc2)cc1S(=O)(=O)C(F)(F)F [AZD4320] + CCN(CCO)CCCOc1ccc2c(Nc3cc(CC(=O)Nc4cccc(F)c4)[nH]n3)ncnc2c1 [AZD2811] (first compound max 1 µM, 7x7, partner max 1 µM)

1. 0.0004
2. 0
3. -0.0267

###

System: LN-18 (Glioblastoma)
Assay: Bliss excess, mean over the matrix (fraction); higher = more synergy
MEASURE: Bliss excess
One number for each entry.

CC1(C)CCC(CN2CCN(c3ccc(C(=O)NS(=O)(=O)c4ccc(NCC5CCOCC5)c([N+](=O)[O-])c4)c(Oc4cnc5[nH]ccc5c4)c3)CC2)=C(c2ccc(Cl)cc2)C1 [Venetoclax] + C=CCn1c(=O)c2cnc(Nc3ccc(N4CCN(C)CC4)cc3)nc2n1-c1cccc(C(C)(C)O)n1 [AZD1775] (first compound max 1 µM, partner max 1 µM) :: 0.0062
COc1cccc(OCCCN)c1-c1cc(Nc2cnc(C#N)cn2)n[nH]1 [Prexasertib] + CN(C)CCCOc1ccc(-c2ccc3ncc4c(c3c2)n(C2CCOCC2)c(=O)n4C)cn1 [AZD0156] (first compound max 1 µM, 7x7, partner max 1 µM) :: 0.0304
CN(CCO)CC[C@H](CSc1ccccc1)Nc1ccc(S(=O)(=O)NC(=O)c2ccc(N3CCC([C@@H](O)c4ccccc4-c4ccc(Cl)cc4)CC3)cc2)cc1S(=O)(=O)C(F)(F)F [AZD4320] + C=CCn1c(=O)c2cnc(Nc3ccc(N4CCN(C)CC4)cc3)nc2n1-c1cccc(C(C)(C)O)n1 [AZD1775] (first compound max 1 µM, partner max 1 µM) :: 0.0152

Hi! Can you tell me Bliss excess for each of these compounds?
1. CC(=O)c1c(C)c2cnc(Nc3ccc(N4CCNCC4)cn3)nc2n(C2CCCC2)c1=O [Palbociclib] + CC1(C)CCC(CN2CCN(c3ccc(C(=O)NS(=O)(=O)c4ccc(NCC5CCOCC5)c([N+](=O)[O-])c4)c(Oc4cnc5[nH]ccc5c4)c3)CC2)=C(c2ccc(Cl)cc2)C1 [Venetoclax] (first compound max 10 µM, 7x7, partner max 1 µM)
2. CS(=O)(=O)CCNCc1ccc(-c2ccc3ncnc(Nc4ccc(OCc5cccc(F)c5)c(Cl)c4)c3c2)o1 [Lapatinib] + C[C@@H](Oc1cc(-c2cnn(C3CCNCC3)c2)cnc1N)c1c(Cl)ccc(F)c1Cl [Crizotinib] (first compound max 10 µM, 7x7, partner max 10 µM)
3. COc1nnc2ccc(N3CCC(c4ccc(OCCN5CCN(C)C(=O)[C@H]5C)cc4)CC3)nn12 [AZD5153] + Cn1cnc2c(F)c(Nc3ccc(Br)cc3Cl)c(C(=O)NOCCO)cc21 [Selumetinib] (first compound max 1 µM, 7x7, partner max 10 µM)
4. COc1cccc(OCCCN)c1-c1cc(Nc2cnc(C#N)cn2)n[nH]1 [Prexasertib] + O=C(c1cc(Cc2n[nH]c(=O)c3ccccc23)ccc1F)N1CCN(C(=O)C2CC2)CC1 [Olaparib] (first compound max 1 µM, 7x7, partner max 10 µM)
5. CC1(C)CCC(CN2CCN(c3ccc(C(=O)NS(=O)(=O)c4ccc(NCC5CCOCC5)c([N+](=O)[O-])c4)c(Oc4cnc5[nH]ccc5c4)c3)CC2)=C(c2ccc(Cl)cc2)C1 [Venetoclax] + CN(C)CCCOc1ccc(-c2ccc3ncc4c(c3c2)n(C2CCOCC2)c(=O)n4C)cn1 [AZD0156] (first compound max 1 µM, 7x7, partner max 1 µM)
6. Cc1cc2ncnn2cc1Nc1ncc2c(n1)n(C1CCOCC1)c(=O)n2C [AZD7648] + C=CCn1c(=O)c2cnc(Nc3ccc(N4CCN(C)CC4)cc3)nc2n1-c1cccc(C(C)(C)O)n1 [AZD1775] (first compound max 10 µM, partner max 1 µM)

0.0187
-0.0342
0.0152
-0.0368
-0.0488
0.0161

###

Tested on: SU-DHL-8 (B-Cell Non-Hodgkin's Lymphoma)
Test: Bliss excess, mean over the matrix (fraction); higher = more synergy
Record form. Attribute: Bliss excess. Fill in for each entry.
Answers are plain numbers.

Sample records with Bliss excess:
COc1cccc2c1C(=O)c1c(O)c3c(c(O)c1C2=O)C[C@@](O)(C(=O)CO)C[C@@H]3O[C@H]1C[C@H](N)[C@H](O)[C@H](C)O1 [Doxorubicin] + Cc1cc2ncnn2cc1Nc1ncc2c(n1)n(C1CCOCC1)c(=O)n2C [AZD7648] (first compound max 1 µM, 7x7, partner max 10 µM) :: 0.0145
Cc1cc2ncnn2cc1Nc1ncc2c(n1)n(C1CCOCC1)c(=O)n2C [AZD7648] + CCN(CCO)CCCOc1ccc2c(Nc3cc(CC(=O)Nc4cccc(F)c4)[nH]n3)ncnc2c1 [AZD2811] (first compound max 10 µM, 7x7, partner max 1 µM) :: 0.038
Cc1cc2ncnn2cc1Nc1ncc2c(n1)n(C1CCOCC1)c(=O)n2C [AZD7648] + CN(C)CCCOc1ccc(-c2ccc3ncc4c(c3c2)n(C2CCOCC2)c(=O)n4C)cn1 [AZD0156] (first compound max 10 µM, 7x7, partner max 1 µM) :: 0.016
C[C@@H](c1ccc2nccn2c1)n1nnc2ncc(-c3cnn(C)c3)nc21 [Savolitinib] + CN(CC[C@H](CSC1=CC=CC=C1)NC2=C(C=C(C=C2)S(=O)(=O)NC(=O)C3=CC=C(C=C3)N4CCC(CC4)[C@H](C5=CC=CC=C5C6=CC=C(C=C6)Cl)O)S(=O)(=O)C(F)(F)F)CCO [AZD4320] (first compound max 1 µM, 7x7, partner max 1 µM) :: 0.0282
CN(CCO)CC[C@H](CSc1ccccc1)Nc1ccc(S(=O)(=O)NC(=O)c2ccc(N3CCC([C@@H](O)c4ccccc4-c4ccc(Cl)cc4)CC3)cc2)cc1S(=O)(=O)C(F)(F)F [AZD4320] + C[C@@H]1COCCN1C2=NC(=NC(=C2)C3(CC3)[S@](=N)(=O)C)C4=C5C=CNC5=NC=C4 [AZD6738] (first compound max 1 µM, 7x7, partner max 10 µM) :: 0.019

We now examine a further compound.
Give Bliss excess for the following compound: CN(CCO)CC[C@H](CSc1ccccc1)Nc1ccc(S(=O)(=O)NC(=O)c2ccc(N3CCC([C@@H](O)c4ccccc4-c4ccc(Cl)cc4)CC3)cc2)cc1S(=O)(=O)C(F)(F)F [AZD4320] + Cn1cnc2c(F)c(Nc3ccc(Br)cc3Cl)c(C(=O)NOCCO)cc21 [Selumetinib] (first compound max 1 µM, 7x7, partner max 3 µM)
-0.102
